The measured values listed here are drawn from ChEMBL document CHEMBL3745677.

- experimental-protocol: Cmax in rat at ED50 dose for lipid modulation
- Assay type: ADME, organism-based
- condition-label: in vivo
outcome-measure: Cmax (ng/mL)
Give bare numbers, in ng/mL.

Entry Cn1cc(C(=O)O)c2ccc(N3CCC(OCc4c(-c5c(Cl)cccc5Cl)noc4C4CC4)CC3)cc21 , Cmax reported as 4.62

---

- experimental-protocol: Terminal half life in beagle dog at 1 mg/kg, iv by LC-MS/MS analysis
- Format: ADME, organism-based, Canis lupus familiaris
- condition-label: in vivo, read-out: beta t1/2 (converted)
outcome-measure: half-life (h)
Give bare numbers, in h.

Entry under test: Cn1cc(C(=O)O)c2ccc(N3CCC(OCc4c(-c5c(Cl)cccc5Cl)noc4C4CC4)CC3)cc21 [TERN-101] . Its half-life was 10

---

- assay-target: Mineralocorticoid receptor (Homo sapiens, UniProt P08235)
- Sequence (P08235 whole entry): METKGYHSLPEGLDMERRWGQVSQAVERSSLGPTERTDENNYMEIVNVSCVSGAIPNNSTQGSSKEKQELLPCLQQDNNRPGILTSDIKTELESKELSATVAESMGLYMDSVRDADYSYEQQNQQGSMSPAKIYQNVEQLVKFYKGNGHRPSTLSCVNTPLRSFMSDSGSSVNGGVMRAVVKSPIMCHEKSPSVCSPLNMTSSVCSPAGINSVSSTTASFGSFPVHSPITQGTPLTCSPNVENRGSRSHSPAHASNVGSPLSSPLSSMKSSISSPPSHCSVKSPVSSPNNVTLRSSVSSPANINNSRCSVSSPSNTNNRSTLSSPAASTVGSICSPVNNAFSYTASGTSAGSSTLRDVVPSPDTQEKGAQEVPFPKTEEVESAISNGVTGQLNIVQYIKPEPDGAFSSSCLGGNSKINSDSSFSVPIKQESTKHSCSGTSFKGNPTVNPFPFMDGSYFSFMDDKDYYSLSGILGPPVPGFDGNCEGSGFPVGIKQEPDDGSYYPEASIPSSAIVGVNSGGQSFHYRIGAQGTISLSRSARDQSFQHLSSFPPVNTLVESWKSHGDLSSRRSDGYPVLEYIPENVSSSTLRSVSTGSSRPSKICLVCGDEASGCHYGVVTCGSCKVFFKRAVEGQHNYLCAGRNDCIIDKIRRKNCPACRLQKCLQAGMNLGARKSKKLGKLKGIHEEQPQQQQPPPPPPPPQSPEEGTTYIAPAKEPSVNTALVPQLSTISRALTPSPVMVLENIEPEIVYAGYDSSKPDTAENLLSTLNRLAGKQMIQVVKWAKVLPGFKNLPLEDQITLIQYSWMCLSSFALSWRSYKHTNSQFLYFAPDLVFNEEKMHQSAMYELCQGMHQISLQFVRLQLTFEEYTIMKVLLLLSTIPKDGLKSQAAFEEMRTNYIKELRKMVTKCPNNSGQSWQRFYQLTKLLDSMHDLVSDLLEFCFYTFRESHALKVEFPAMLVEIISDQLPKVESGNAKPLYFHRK
- experimental-protocol: Agonist activity at mineralocorticoid receptor (unknown origin) expressed in HEK293 cells assessed as transcriptional activation
outcome-measure: EC50

// Cn1cc(C(=O)O)c2ccc(N3CCC(OCc4c(-c5c(Cl)cccc5Cl)noc4C4CC4)CC3)cc21 : EC50 value = > 10 µM

---

- experimental-protocol: Clearance in Sprague-Dawley rat at 1 mg/kg, iv by LC-MS/MS analysis
- Assay type: ADME, organism-based
- condition-label: in vivo
outcome-measure: clearance (mL/min/kg)
Give bare numbers, in mL/min/kg.

Lab note: measured clearance of Cn1cc(C(=O)O)c2ccc(N3CCC(OCc4c(-c5c(Cl)cccc5Cl)noc4C4CC4)CC3)cc21 was 30

---

- experimental-protocol: AUC (0 to 24 hrs) in cynomolgus monkey at 0.91 mg/kg, iv by LC-MS/MS analysis
- Type: ADME, organism-based, Macaca fascicularis
- Set-up: dose 0.91 mg/kg, time < 24 hr, route intravenous
- condition-label: in vivo
outcome-measure: AUC(0-t) at 24 h (ng·h/mL)
Answers are plain numbers, in ng·h/mL.

Entry Cn1cc(C(=O)O)c2ccc(N3CCC(OCc4c(-c5c(Cl)cccc5Cl)noc4C4CC4)CC3)cc21 [TERN-101] — recorded AUC(0-t) at 24 h = 2300

---

- experimental-protocol: Terminal half life in beagle dog at 3 mg/kg, po by LC-MS/MS analysis
- Assay type: ADME, organism-based, Canis lupus familiaris
- condition-label: in vivo, read-out: beta t1/2 (converted)
outcome-measure: half-life (h)
Give bare numbers, in h.

Lab note: Cn1cc(C(=O)O)c2ccc(N3CCC(OCc4c(-c5c(Cl)cccc5Cl)noc4C4CC4)CC3)cc21 [TERN-101] gave half-life of 7

---

- experimental-protocol: Tmax in beagle dog at 3 mg/kg, po by LC-MS/MS analysis
- Format: ADME, organism-based, Canis lupus familiaris
- condition-label: in vivo
outcome-measure: Tmax (min)
One number for each entry, in min.

Tmax for Cn1cc(C(=O)O)c2ccc(N3CCC(OCc4c(-c5c(Cl)cccc5Cl)noc4C4CC4)CC3)cc21 is 45

---

- experimental-protocol: Cmax in Sprague-Dawley rat at 3 mg/kg, po by LC-MS/MS analysis
- Format: ADME, organism-based
- Parameters: dose 3 mg/kg, route oral
- condition-label: in vivo
outcome-measure: Cmax
Include the unit after the number when you answer.

The molecule Cn1cc(C(=O)O)c2ccc(N3CCC(OCc4c(-c5c(Cl)cccc5Cl)noc4C4CC4)CC3)cc21 [TERN-101] showed Cmax equal to 130 ng/mL
